- Test system: NCI-H596
- method.description: relative viability (nuclei count vs DMSO), 5 days (fraction); higher = more cells survive
- condition.info: first compound 2.53 µM
quantity.kind: relative viability
Reply briefly: the number, and no unit.

These solved cases illustrate the format of a correct answer.
molecule: Cc1cnc(-c2cnc(NCCNc3ccc(C#N)cn3)nc2-c2ccc(Cl)cc2Cl)[nH]1 + CC(=O)Nc1cccc(-n2c(=O)n(C3CC3)c(=O)c3c(Nc4ccc(I)cc4F)n(C)c(=O)c(C)c32)c1 [Trametinib] (partner 0.02 µM)
quantity.kind: relative viability
measurement: 0.91
--
molecule: O=c1[nH]c2ccccc2n1C1CCN(CCCC(c2ccc(F)cc2)c2ccc(F)cc2)CC1 [Pimozide] + C[C@@H](Oc1cc(-c2cnn(C3CCNCC3)c2)cnc1N)c1c(Cl)ccc(F)c1Cl [Crizotinib] (partner 1 µM)
quantity.kind: relative viability
measurement: 0.911

Give the measured relative viability for Cc1cnc(-c2cnc(NCCNc3ccc(C#N)cn3)nc2-c2ccc(Cl)cc2Cl)[nH]1 + O=C(CCCCCCC(=O)Nc1ccccc1)NO [Vorinostat] (partner 1 µM)
0.688
